// activity, negative = inhibition lookup, one value per entry
Assay: Stat Signaling Pathway (AID 446);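 further: ME-180 cervical cancer cells given 40 pM IL-6 alongside compound; SIE-controlled beta-lactamase reporter measured as 460/530 nm FRET emission ratio; on the % scale 0 is the no-effect control and ±100 the full control effect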
Conditions: ME-180 (cervical carcinoma) SIE beta-lactamase reporter, IL-6 stimulated, 5 h; at 17.2 µM (top of the series)
Experimental: NCGC Assay Overview: The IL-6/STAT signaling pathway was assayed in ME-180 cervical carcinoma cells by a beta-lactamase reporter gene controlled by a STAT Inducible Element (SIE). This reporter is induced by IL-6 at 40 pM AC50 and inhibited by the pan JAK inhibitor, 2-(1,1-Dimethylethyl)-9-fluoro-3,6-dihydro-7H-benz[h]-imidaz[4,5-f]isoquinolin-7-one, at approximately 10 nM AC50. Plated cells were incubated overnight and on the following day, stimulated with 40 pM IL-6 for 5 hrs. […]
Inconclusive results are not listed.
Express the result in % but write the number alone.

Worked cases, activity, negative = inhibition given:
>>> test_value("COCCCCC(=NOCCN)c1ccc(C(F)(F)F)cc1")
-3.51
>>> test_value("CC(=O)CCCCn1c(=O)c2c(ncn2C)n(C)c1=O")
-10.5
>>> test_value("CCCCC1C(=O)N(c2ccccc2)N(c2ccccc2)C1=O")
-15.3
>>> test_value("CC(=O)N[C@@H](CS)C(=O)O")
3.22
>>> test_value("C[N+](C)(C)CCCCCC[N+](C)(C)C")
8.45
>>> test_value("O=C1NCC2(CCN(CCc3ccccc3)CC2)O1")
8.61

Now examine the next entry.
Please give measured activity, negative = inhibition of the following entry: O=C1NC(=O)C(c2ccccc2)(c2ccccc2)N1 -0.146
